Experiment: Tasting of a sample of the purified compound (taste perceived, sweetness relative to sucrose)
Conditions: tasted at 500 ppm in a water base; approximate
From the text: The sweetness intensity perceived was weaker than the sweetness intensity perceived with mogroside V. However, the perception of licorice and lingering profile of isomogroside IVe was weaker than that of mogroside V (see table on following page).
Task for the reader: assign each of the following molecules its reported sweetness relative to sucrose.

molecule	sweetness relative to sucrose
C[C@H](C(O)C[C@@H](O[C@@H]1O[C@H](CO[C@@H]2O[C@H](CO)[C@@H](O)[C@H](O)[C@H]2O)[C@@H](O)[C@H](O)[C@H]1O)C(C)(C)O)[C@H]1CC[C@@]2(C)[C@@H]3CC=C4[C@@H](CC[C@H](O[C@@H]5O[C@H](CO)[C@@H](O)[C@H](O)[C@H]5O)C4(C)C)[C@]3(C)[C@H](O)C[C@]12C (stereo partly shown)	20-50 times sweeter than sucrose

Batch request: sweetness relative to sucrose for each of the following molecules.
1. C[C@H](CC[C@@H](O[C@@H]1O[C@H](CO)[C@@H](O)[C@H](O)[C@H]1O[C@@H]1O[C@H](CO)[C@@H](O)[C@H](O)[C@H]1O)C(C)(C)O)[C@H]1CC[C@@]2(C)[C@@H]3CC=C4[C@@H](CC[C@H](O[C@@H]5O[C@H](CO[C@@H]6O[C@H](CO)[C@@H](O)[C@H](O)[C@H]6O)[C@@H](O)[C@H](O)[C@H]5O)C4(C)C)[C@]3(C)CC[C@]12C [Compound 15a]
2. C[C@H](CC[C@@H](O[C@@H]1O[C@H](CO[C@@H]2O[C@H](CO)[C@@H](O)[C@H](O)[C@H]2O)[C@@H](O)[C@H](O)[C@H]1O[C@@H]1O[C@H](CO)[C@@H](O)[C@H](O)[C@H]1O)C(C)(C)O)[C@H]1CC[C@@]2(C)[C@@H]3C(O)C=C4[C@@H](CC[C@H](O[C@@H]5O[C@H](CO[C@@H]6O[C@H](CO)[C@@H](O)[C@H](O)[C@H]6O)[C@@H](O)[C@H](O)[C@H]5O)C4(C)C)[C@]3(C)[C@H](O)C[C@]12C (stereo partly shown)
3. C[C@H](CC[C@@H](O[C@@H]1O[C@H](CO[C@@H]2O[C@H](CO)[C@@H](O)[C@H](O)[C@H]2O)[C@@H](O)[C@H](O)[C@H]1O[C@@H]1O[C@H](CO)[C@@H](O)[C@H](O)[C@H]1O)C(C)(C)O)[C@H]1CC[C@@]2(C)[C@@H]3CC=C4[C@@H](CC[C@H](O[C@@H]5O[C@H](CO[C@@H]6O[C@H](CO)[C@@H](O)[C@H](O)[C@H]6O)[C@@H](O)[C@H](O)[C@H]5O)C4(C)C)[C@]3(C=O)C(=O)C[C@]12C

["150-300 times sweeter than sucrose", "30-60 times sweeter than sucrose", "100-200 times sweeter than sucrose"]
